METHOD: Absolute oral bioavailability crossover study: plasma pharmacokinetics (LC-MS/MS, non-compartmental analysis)
Type: in vivo, human
CONDITION PARAMETERS: lorlatinib 50 mg IV, n = 11; geometric mean (geometric %CV)
METRIC NAME: Cmax

stdin: May I ask what Cmax has been recorded for C[C@H]1Oc2cc(cnc2N)-c2c(nn(C)c2C#N)CN(C)C(=O)c2ccc(F)cc21 [Lorlatinib] ?
stdout: 392 ng/mL

====

METHOD: Absolute oral bioavailability crossover study: plasma pharmacokinetics (LC-MS/MS, non-compartmental analysis)
Type: in vivo, human
CONDITION PARAMETERS: human, plasma; lorlatinib 50 mg IV, n = 11; geometric mean (geometric %CV); read-out: Vss
METRIC NAME: Vd

stdin: Endpoint output: Vd of "C[C@H]1Oc2cc(cnc2N)-c2c(nn(C)c2C#N)CN(C)C(=O)c2ccc(F)cc21" . Value?
stdout: 305 L

====

METHOD: Absolute oral bioavailability crossover study: plasma pharmacokinetics (LC-MS/MS, non-compartmental analysis)
Type: in vivo, human
CONDITION PARAMETERS: human, plasma; lorlatinib 50 mg IV, n = 11; median (range); read-out: Tmax
METRIC NAME: Tmax (h)
Your answer should be a plain number; it is taken to be in h.

stdin: // query Tmax value for entry "C[C@H]1Oc2cc(cnc2N)-c2c(nn(C)c2C#N)CN(C)C(=O)c2ccc(F)cc21"
stdout: 1.28

====

METHOD: Solubility in aqueous media
Assay type: physicochemical
CONDITION PARAMETERS: pH 2.55
METRIC NAME: solubility
Value and unit, in that order.

stdin: Endpoint output: solubility of "C[C@H]1Oc2cc(cnc2N)-c2c(nn(C)c2C#N)CN(C)C(=O)c2ccc(F)cc21" . Value?
stdout: 32.4 mg/mL

====

METHOD: Absolute oral bioavailability crossover study: plasma pharmacokinetics (LC-MS/MS, non-compartmental analysis)
Type: in vivo, human
CONDITION PARAMETERS: human, plasma, iv, 50 mg, lorlatinib 50 mg IV, dose normalized, n = 11; geometric mean (geometric %CV); read-out: AUCinf (dn)
METRIC NAME: AUC(0-inf) (ng·h/mL)
Write it as a number; the unit ng·h/mL goes unstated.

stdin: So what does the record say about AUC(0-inf) for "C[C@H]1Oc2cc(cnc2N)-c2c(nn(C)c2C#N)CN(C)C(=O)c2ccc(F)cc21" ?
stdout: 5150

====

METHOD: Absolute oral bioavailability crossover study: plasma pharmacokinetics (LC-MS/MS, non-compartmental analysis)
Format: in vivo, human
CONDITION PARAMETERS: human, plasma; lorlatinib 50 mg IV, dose normalized, n = 11; geometric mean (geometric %CV); read-out: Cmax (dn)
METRIC NAME: Cmax
Don't forget the unit after the number, please.

stdin: // query Cmax value for entry C[C@H]1Oc2cc(cnc2N)-c2c(nn(C)c2C#N)CN(C)C(=O)c2ccc(F)cc21 [Lorlatinib]
stdout: 392 ng/mL

====

METHOD: Absolute oral bioavailability crossover study: plasma pharmacokinetics (LC-MS/MS, non-compartmental analysis)
Assay type: in vivo, human
CONDITION PARAMETERS: human, plasma, iv, 50 mg, lorlatinib 50 mg IV, n = 11; geometric mean (geometric %CV); read-out: AUCinf
METRIC NAME: AUC(0-inf)

stdin: Recorded AUC(0-inf) for "C[C@H]1Oc2cc(cnc2N)-c2c(nn(C)c2C#N)CN(C)C(=O)c2ccc(F)cc21" , please?
stdout: 5150 ng·h/mL

====

METHOD: Solubility in aqueous media
Assay type: physicochemical
CONDITION PARAMETERS: pH 8.02
METRIC NAME: solubility

stdin: Query (compound): "C[C@H]1Oc2cc(cnc2N)-c2c(nn(C)c2C#N)CN(C)C(=O)c2ccc(F)cc21" ; field requested: solubility
stdout: 170 µg/mL

====

METHOD: Absolute oral bioavailability crossover study: plasma pharmacokinetics (LC-MS/MS, non-compartmental analysis)
Type: in vivo, human
CONDITION PARAMETERS: human, plasma, iv, 50 mg, Reference, lorlatinib 50 mg IV; mixed-effects model; read-out: AUCinf (dn), adjusted geometric mean
METRIC NAME: AUC(0-inf) (ng·h/mL)
Number in ng·h/mL, nothing else.

stdin: What does the record list as AUC(0-inf) for C[C@H]1Oc2cc(cnc2N)-c2c(nn(C)c2C#N)CN(C)C(=O)c2ccc(F)cc21 [Lorlatinib] ?
stdout: 5190

====

METHOD: Absolute oral bioavailability crossover study: plasma pharmacokinetics (LC-MS/MS, non-compartmental analysis)
Assay type: in vivo, human
CONDITION PARAMETERS: human, plasma, iv, 50 mg, Reference, lorlatinib 50 mg IV; mixed-effects model; read-out: AUClast (dn), adjusted geometric mean
METRIC NAME: AUC(0-t) (ng·h/mL)
// units = ng·h/mL; emit number, no label

stdin: Entry C[C@H]1Oc2cc(cnc2N)-c2c(nn(C)c2C#N)CN(C)C(=O)c2ccc(F)cc21 [Lorlatinib] : reported AUC(0-t) = ?
stdout: 5030

====

METHOD: Absolute oral bioavailability crossover study: plasma pharmacokinetics (LC-MS/MS, non-compartmental analysis)
Type: in vivo, human
CONDITION PARAMETERS: human, plasma; lorlatinib 100 mg oral tablets, n = 11; geometric mean (geometric %CV); read-out: Vz/F
Protocol: This was an open-label, phase 1, randomized two-sequence, two-treatment, two-period, crossover study in healthy participants. […] The detection range was 0.05–50 ng/mL or 1 to 1000 ng/mL for low and high concentration samples, respectively. […] The lower limit of quantification (LLOQ) for lorlatinib and its metabolite was 2.50 ng/mL. PK parameter values were calculated using an internally validated software system (eNCA). […] Metabolite-to-parent ratios were calculated after adjustment for molecular weights. […]
METRIC NAME: Vd/F (L)
# number only, unit L dropped from output

stdin: Given the compound "C[C@H]1Oc2cc(cnc2N)-c2c(nn(C)c2C#N)CN(C)C(=O)c2ccc(F)cc21" , what is its reported Vd/F?
stdout: 440

====

METHOD: Absolute oral bioavailability crossover study: plasma pharmacokinetics (LC-MS/MS, non-compartmental analysis)
Type: in vivo, human
CONDITION PARAMETERS: human, plasma, oral, 100 mg, Test, lorlatinib 100 mg oral tablets; mixed-effects model; normalized to 50 mg IV dose; read-out: AUCinf (dn), adjusted geometric mean
METRIC NAME: AUC(0-inf) (ng·h/mL)
# output: bare number, implied unit ng·h/mL

stdin: Item under review: "C[C@H]1Oc2cc(cnc2N)-c2c(nn(C)c2C#N)CN(C)C(=O)c2ccc(F)cc21" . Reported AUC(0-inf)?
stdout: 4190

====

METHOD: Absolute oral bioavailability crossover study: plasma pharmacokinetics (LC-MS/MS, non-compartmental analysis)
Format: in vivo, human
CONDITION PARAMETERS: lorlatinib 100 mg oral tablets, n = 11; geometric mean (geometric %CV)
METRIC NAME: Cmax (ng/mL)
Express the result in ng/mL but write the number alone.

stdin: Which value of Cmax has been reported for "C[C@H]1Oc2cc(cnc2N)-c2c(nn(C)c2C#N)CN(C)C(=O)c2ccc(F)cc21" in the records?
stdout: 501

====

METHOD: Absolute oral bioavailability crossover study: plasma pharmacokinetics (LC-MS/MS, non-compartmental analysis)
Type: in vivo, human
CONDITION PARAMETERS: human, plasma, iv, 50 mg, lorlatinib 50 mg IV, n = 11; geometric mean (geometric %CV); read-out: AUClast
METRIC NAME: AUC(0-t) (ng·h/mL)
Answer with a number only, understood to be in ng·h/mL.

stdin: What AUC(0-t) value was documented for this molecule, "C[C@H]1Oc2cc(cnc2N)-c2c(nn(C)c2C#N)CN(C)C(=O)c2ccc(F)cc21" ?
stdout: 4990
